Kindly state IC50 for each of the entries shown.
- TARGET_DESC: D(1A) dopamine receptor (Rattus norvegicus)
- Sequence (P18901 whole entry): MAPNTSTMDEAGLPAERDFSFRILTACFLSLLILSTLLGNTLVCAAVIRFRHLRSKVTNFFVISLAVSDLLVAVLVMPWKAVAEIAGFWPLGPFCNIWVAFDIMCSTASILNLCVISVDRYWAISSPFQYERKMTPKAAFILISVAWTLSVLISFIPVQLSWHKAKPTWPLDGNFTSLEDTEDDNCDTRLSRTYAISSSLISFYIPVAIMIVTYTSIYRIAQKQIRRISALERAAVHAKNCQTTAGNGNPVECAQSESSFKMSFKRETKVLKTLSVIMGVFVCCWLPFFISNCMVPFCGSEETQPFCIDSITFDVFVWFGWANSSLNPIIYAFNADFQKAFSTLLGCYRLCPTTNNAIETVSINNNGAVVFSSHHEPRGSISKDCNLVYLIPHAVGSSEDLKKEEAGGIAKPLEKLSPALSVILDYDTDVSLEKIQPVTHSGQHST
- PROTOCOL_NOTES: In vitro binding affinity towards dopamine receptor D1 in rat striatal membrane using [3H]-SCH- 23390

[[record]]
compound = "CCCN1CCC=C2c3nc(N)sc3CC[C@@H]21 (stereo in doubt; (+)-6)"
metric = "IC50"
measured_value = "> 10 µM"

[[record]]
compound = "CCCN1CCC2=C(CCc3sc(N)nc32)C1"
metric = "IC50"
measured_value = "10 µM"

[[record]]
compound = "CCCN1CCC=C2c3nc(N)sc3CCC21 (racemic)"
metric = "IC50"
measured_value = "> 10 µM"

[[record]]
compound = "CCCN1CCC=C(c2csc(N)n2)C1"
metric = "IC50"
measured_value = "10 µM"

[[record]]
compound = "CCCN1CCCC2c3nc(N)sc3CCC21 (stereo in doubt; 29)"
metric = "IC50"
measured_value = "> 10 µM"

[[record]]
compound = "CCCN1CC=C2c3nc(N)sc3CCC2C1 (configuration not stated)"
metric = "IC50"
measured_value = "> 10 µM"


# compound CCCN1CCC2=C(C1)c1nc(N)sc1CC2 ; its IC50 = > 10 µM
